Where do these numbers come from? They come from PubChem BioAssay (NCI).

Tested on: SW-620 colon
Assay Procedure: NCI-60 one-dose screen, 48 h (100 = growth as untreated, 0 = no growth, -100 = all killed)
Run Conditions: 10 µM unless noted
Compounds without any hit were thinned out: in the full panel of roughly 83,000, 20% have a hit.
Rule: y for growth not less than 30%, n for anything less.

Recorded results for 4 molecules are shown here.
Form field: growth at least 30%? Entry: COc1ccc(C(=O)Nc2ncc(Cc3ccc(F)cc3)s2)cc1
y

Form field: growth at least 30%? Entry: CCN1CCN(c2cc(C(=O)Nc3nc(-c4cc(OC)c(OC)c(OC)c4)cs3)cc(C(F)(F)F)c2)CC1
y

Form field: growth at least 30%? Entry: C/C(=N\NC(=O)c1ccccc1O)c1cccc(/C(C)=N/NC(=O)c2ccccc2O)n1
y

Form field: growth at least 30%? Entry: COc1cc(/C=C\c2cc(/C=C\c3ccc(O)c(OC)c3)n(C(=O)COc3ccc(Cl)cc3Cl)n2)ccc1O
n

Continue with the molecule presented below.
Form field: growth at least 30%? Entry: CCOC(=O)C(=Cc1cccc(Br)c1)C(=O)OCC
n

* * *

System: DU-145 prostate
Assay Procedure: NCI-60 one-dose screen, 48 h
Run Conditions: 10 µM unless noted
Compounds without any hit were thinned out: in the full panel of roughly 83,000, 20% have a hit. Activity calls are given as the source filed them. How the source made its calls: active means growth percent below 10; inactive means the rest.
Can you answer with just one of these options? y for active, n for inactive

Assay result, entry COc1ccc(-c2nnc(-c3ccc4c(c3)nc(-c3ccncc3)n4C3CCCCC3)o2)cc1 — outcome?
n

Assay result, entry COc1ccc(C2c3sc4c(F)cccc4c3Oc3nc[nH]c(=O)c32)cc1 (stereo not given) — outcome?
n

Assay result, entry CCNc1nc(-c2ccc(Cl)c(OC)c2)c(-c2ccnc(NCCCNS(=O)(=O)c3ccc(Cl)cc3)n2)s1 — outcome?
n

Assay result, entry CC1=Nc2cnc(Nc3ccc(OCCN4CCCC4)cc3)nc2Nc2ccccc21 — outcome?
n

Assay result, entry OCCCC1CCN(C(Cc2ccccc2)c2ccccc2)CC1 (stereo not given) — outcome?
n

Assay result, entry Nc1c(C(=O)Nc2ccncc2)sc2nc3c(cc12)CCCCCC3 — outcome?
n

Assay result, entry C=CCc1c(O)c(C(=O)/C=C/c2ccc(Cl)cc2)c(OC)c2ccoc12 — outcome?
n

Assay result, entry CN(C)c1ccc(/C=C/C(=O)c2ccc(-n3cc(CN4CCN(c5cc6c(cc5F)c(=O)c(C(=O)O)cn6C5CC5)CC4)nn3)cc2)cc1 — outcome?
n

Assay result, entry O=C(c1ccc(Cl)cc1)N1CCN(c2ccnc3cc(Cl)ccc23)CC1 — outcome?
n

Assay result, entry O=C1Nc2ccc(Br)cc2/C1=N/c1n[nH]c(=S)s1 — outcome?
n

Further cases:
Assay result, entry Cc1noc(C)c1C(=O)OCc1coc2ccccc2c1=O — outcome?
n

Assay result, entry OCCNCCCOc1ccc2ncnc(Nc3ccc(Oc4cccc(C(F)(F)F)c4)c(Cl)c3)c2c1 — outcome?
n

Assay result, entry Cn1cc(-c2csc(-c3ccc(Cl)cc3)n2)c2cccnc21 — outcome?
y

Assay result, entry O=C(N/N=C/c1ccc(F)cc1)c1ccc(C(F)(F)F)nc1Nc1cccc(C(F)(F)F)c1 — outcome?
n

Assay result, entry Cc1ccccc1/C=C1\CN(C(=O)OC(C)(C)C)C/C(=C\c2ccccc2C)C1=O — outcome?
y

Assay result, entry CCCCCCCCn1ccc2cc(NC(=O)Cn3cc(CN4CCCCC4)nn3)ccc21 — outcome?
n

Assay result, entry C=C1C(=O)O[C@H]2[C@H]1CC/C(COC(=O)NCc1ccc(Cn3c(=O)sn(CCI)c3=O)cc1)=C\CC[C@@]1(C)O[C@@H]21 — outcome?
n

Assay result, entry CC(C)c1ccc(NC(=O)Nc2ccc(NC(=O)CCCC(=O)NOCc3ccccc3)cc2)cc1 — outcome?
n

Assay result, entry CC(=O)Cc1nsc(NC(=O)c2cc(-c3cc(Cl)cc(Cl)c3)oc2C)n1 — outcome?
n

Assay result, entry C[C@@H]1CCC[C@H]1CC(N)C(=O)O (stereo not given in full) — outcome?
n
